- System Under Test: KRAS G13C (Homo sapiens, UniProt P01116+P62937, G13C)
- Sequence (P01116 1-169 isoform P01116-2 G13C limits assumed): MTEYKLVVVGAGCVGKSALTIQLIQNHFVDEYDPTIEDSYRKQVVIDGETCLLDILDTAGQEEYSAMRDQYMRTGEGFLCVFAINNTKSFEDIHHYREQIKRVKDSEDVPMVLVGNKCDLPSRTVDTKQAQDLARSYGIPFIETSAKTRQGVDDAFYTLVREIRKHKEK
- Sequence (P62937 whole entry): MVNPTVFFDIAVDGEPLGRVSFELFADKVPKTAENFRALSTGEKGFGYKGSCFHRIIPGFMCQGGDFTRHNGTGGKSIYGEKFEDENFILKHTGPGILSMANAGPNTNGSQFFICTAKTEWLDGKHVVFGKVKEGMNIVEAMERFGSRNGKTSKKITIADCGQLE
- Procedure Text: Ras-Raf disruption / FRET / MOA assay (BRAF RBD)
- Assay type: biochemical
- Measurement Conditions: KRAS G13C FRET data IC50, Ras-Raf disruption, with Cyclophilin A
- From the text: Disruption of […] Ras-binding Domain (BRAF^RBD) Interaction with K-Ras by Compounds of the Invention (also Called a FRET Assay or an MOA Assay) Note—The following protocol describes a procedure for monitoring disruption of K-Ras G12C (GMP-PNP) binding to BRAF^RBD by a compound of the invention. This protocol may also be executed substituting other Ras proteins or nucleotides, such as K-Ras G12D and K-Ras G13D. […]
What IC50 was measured for each of the following?

>  <Molecule>
CCn1c(-c2cccnc2[C@H](C)OC)c2c3cc(ccc31)-c1cc(O)cc(c1)C[C@H](NC(=O)[C@H](C(C)C)N(C)C(=O)CN(C)C(=O)[C@@H]1CN1CC(=O)N(C)C)C(=O)N1CCC[C@H](N1)C(=O)OCC(C)(C)C2 (some centres unmarked)

>  <Test Result>
10 to 100 nM

$$$$
>  <Molecule>
CCn1c(-c2cccnc2[C@H](C)OC)c2c3cc(ccc31)-c1cc(O)cc(c1)C[C@H](NC(=O)[C@H](C(C)C)N(C)C(=O)CN(C)C(=O)[C@@H]1CN1CCOC)C(=O)N1CCC[C@H](N1)C(=O)OCC(C)(C)C2 (some centres unmarked)

>  <Test Result>
10 to 100 nM

$$$$
>  <Molecule>
CCn1c(-c2cccnc2[C@H](C)OC)c2c3cc(ccc31)-c1cc(O)cc(c1)C[C@H](NC(=O)[C@H](C(C)C)N(C)C(=O)CN(C)C(=O)[C@@H]1CN1CC1COC1)C(=O)N1CCC[C@H](N1)C(=O)OCC(C)(C)C2 (some centres unmarked)

>  <Test Result>
10 to 100 nM

$$$$
>  <Molecule>
CCn1c(-c2cccnc2[C@H](C)OC)c2c3cc(ccc31)-c1cc(O)cc(c1)C[C@H](NC(=O)[C@H](C(C)C)N(C)C(=O)CN(C)C(=O)[C@@H]1CN1CCCN1CCCC1=O)C(=O)N1CCC[C@H](N1)C(=O)OCC(C)(C)C2 (some centres unmarked)

>  <Test Result>
10 to 100 nM

$$$$
>  <Molecule>
CCn1c(-c2cccnc2[C@H](C)OC)c2c3cc(ccc31)-c1cc(O)cc(c1)C[C@H](NC(=O)[C@H](C(C)C)N(C)C(=O)[C@H]1CCCN1C(=O)[C@H]1CN1)C(=O)N1CCC[C@H](N1)C(=O)OCC(C)(C)C2

>  <Test Result>
10 to 100 nM

$$$$
>  <Molecule>
CCn1c(-c2cccnc2[C@H](C)OC)c2c3cc(ccc31)-c1csc(n1)C[C@H](NC(=O)[C@H](C1CCCC1)N(C)C(=O)CN(C)C(=O)[C@@H]1N[C@@H]1C1CC1)C(=O)N1CCC[C@H](N1)C(=O)OCC(C)(C)C2

>  <Test Result>
1000 to 10000 nM

$$$$

State recorded IC50 for all listed molecules.
1. CCn1c(-c2cccnc2[C@H](C)OC)c2c3cc(ccc31)-c1cc(O)cc(c1)C[C@H](NC(=O)[C@H](C(C)C)N(C)C(=O)CN(C)C(=O)[C@H]1CN1)C(=O)N1CCC[C@H](N1)C(=O)OCC(C)(C)C2 (single isomer, unassigned) [Example 42B]
2. CCn1c(-c2cccnc2[C@H](C)OC)c2c3cc(ccc31)-c1cc(O)cc(c1)C[C@H](NC(=O)[C@H](C1CCCC1)N(C)C(=O)CN(C)C(=O)[C@@H]1N[C@@H]1C1CC1)C(=O)N1CCC[C@H](N1)C(=O)OCC(C)(C)C2

Output line:
["100 to 1000 nM", "10 to 100 nM"]
